Data provenance is ChEMBL document CHEMBL5230158.

# assay-comment: Cytotoxicity against human C8166 cells assessed as reduction in cell viability incubated for 3 days by MTT assay
# Format: toxicity, cell-based
# assay-context: time 3 day
The following compounds are shown together with reported CC50 at 72 h values.
Reply with just the number (in mM).

Item: Cc1cn([C@H]2C[C@H](N=[N+]=[N-])[C@@H](CO)O2)c(=O)[nH]c1=O [ZIDOVUDINE] | CC50 at 72 h: 3.99

Item: OCCc1cc2c(c3c1ccc1ccccc13)OCO2 | CC50 at 72 h: 0.838

Item: O[C@H]1Cc2cc3c(c4c2c1cc1ccccc14)OCO3 | CC50 at 72 h: 3.09
